This collection of values is drawn from patent US4256640A.

Test system: DS male mice
Test: Analgesic activity a: acetic acid writhing method
Assay type: in vivo, mouse
Settings: mouse, oral, 30 min before 0.6% acetic acid i.p.; writhing counted for 10 minutes; read-out: Analgesic Activity a ED50
Procedure: a. Acetic acid writing method DS male mice (20-23 g) are treated with an intraperitoneal injection of 0.1 ml/10 g of 0.6% acetic acid 30 minutes after oral administration of a test compound. The number of times of writhing for 10 minutes is counted and ED50 is calculated.
In this section, each of the molecules is paired with its reported ED50.

{"molecule": "CC(=O)n1c2c(c3ccccc31)C(CN(C)C)CCS2 (centres unmarked) [Comp. 4]", "uom": "mg/kg", "ED50": 21}
{"molecule": "COc1cc(C)nc(-n2nc(C)cc2OC)n1 [Mepirizole, reference compound]", "uom": "mg/kg", "ED50": 110}
{"molecule": "CNCC1CCSc2c1c1ccccc1n2C (centres unmarked) [Comp. 2]", "uom": "mg/kg", "ED50": 21.2}
{"molecule": "CNCC1CCSc2[nH]c3ccccc3c21 (centres unmarked) [Comp. 1]", "uom": "mg/kg", "ED50": 4.2}
{"molecule": "CNCC1CCS(=O)(=O)c2[nH]c3ccccc3c21 (centres unmarked) [Comp. 3]", "uom": "mg/kg", "ED50": 11.7}

###

test: Acute toxicity, oral, mice (LD50); conditions: in vivo, mouse, mortality at 72 hours, P = presumption
In this section, each of the molecules is paired with its reported LD50 at 72 h.
measurement-name: LD50 at 72 h

{"molecule": "CC(=O)n1c2c(c3ccccc31)C(CN(C)C)CCS2 (stereo not drawn)", "result": "~175 mg/kg"}
{"molecule": "CNCC1CCS(=O)(=O)c2[nH]c3ccccc3c21 (stereo not drawn)", "result": "~750 mg/kg"}
{"molecule": "CNCC1CCSc2c1c1ccccc1n2C (stereo not drawn)", "result": "~750 mg/kg"}
{"molecule": "CNCC1CCSc2[nH]c3ccccc3c21 (stereo not drawn)", "result": "409 mg/kg"}
{"molecule": "COc1cc(C)nc(-n2nc(C)cc2OC)n1 [Mepirizole, reference compound]", "result": "1150 mg/kg"}
{"molecule": "COc1ccc2c(c1)c(CC(=O)O)c(C)n2C(=O)c1ccc(Cl)cc1 [Idomethacin, reference compound]", "result": "17 mg/kg"}

###

In this section, each of the compounds is paired with its reported LD50 at 360 h.
Test: Acute toxicity, oral, rats (LD50)
Conditions: in vivo, rat, mortality on the 15th day
Procedure: b. JCL-Wistar female rats (180-220 g) are orally administered a suspension of test compound with gum arabic. The mortality on the 15th day is determined and the LD50 is calculated.
measurement-name: LD50 at 360 h (mg/kg)

{"compound": "COc1cc(C)nc(-n2nc(C)cc2OC)n1 [Mepirizole, reference compound]", "measurement-name": "LD50 at 360 h", "numeric-value": 552}
{"compound": "CNCC1CCSc2[nH]c3ccccc3c21 (stereo not drawn)", "measurement-name": "LD50 at 360 h", "numeric-value": 295}
{"compound": "COc1ccc2c(c1)c(CC(=O)O)c(C)n2C(=O)c1ccc(Cl)cc1 [Idomethacin, reference compound]", "measurement-name": "LD50 at 360 h", "numeric-value": 14}
